- System: HT-29 cells
- ASSAY PROCEDURE: MTT cell viability assay with CompuSyn / Chou-Talalay combination index analysis
- Type: cell-based, human
- REPORTED CONDITIONS: Homo sapiens, HT-29; 48 h, median-effect plot; combination = total dose at 1:20; read-out: Dm values for HT-29
- Method: Cell cytotoxicity in the presence or absence of AGP and MLT was assessed using the MTT (Sigma Aldrich) assay as previously described (Banerjee et al., Helicobacter, (2016), 21(5):395-404). […] Absorbance at 570 nm was determined using a microplate reader (Model 550, Bio-Rad, USA). The percent cell viability relative to the vehicle control was calculated using the following equation: […] To determine an upper bound on both the individual doses drugs, we measured maximum cell death (near 0% cell viability). […]
pIC50: −log10 of the molar value.
RECORDED METRIC: pIC50

[P] C=C1CC[C@@H]2[C@](C)(CO)[C@H](O)CC[C@@]2(C)[C@@H]1C/C=C1/C(=O)OC[C@H]1O [AGP, andrographolide]
[Q] COc1ccc2[nH]cc(CCNC(C)=O)c2c1 [MLT, melatonin]
Prompt: Please let me know which one, P or Q , has a lower measured pIC50 value. Pick one; state its label.
Completion: Q
